Each item that follows carries a reported pIC50.
Experimental Target: α-glucosidase (Saccharomyces cerevisiae)
Construct: purchased Sigma-Aldrich G0660
Sequence (P53341 whole entry): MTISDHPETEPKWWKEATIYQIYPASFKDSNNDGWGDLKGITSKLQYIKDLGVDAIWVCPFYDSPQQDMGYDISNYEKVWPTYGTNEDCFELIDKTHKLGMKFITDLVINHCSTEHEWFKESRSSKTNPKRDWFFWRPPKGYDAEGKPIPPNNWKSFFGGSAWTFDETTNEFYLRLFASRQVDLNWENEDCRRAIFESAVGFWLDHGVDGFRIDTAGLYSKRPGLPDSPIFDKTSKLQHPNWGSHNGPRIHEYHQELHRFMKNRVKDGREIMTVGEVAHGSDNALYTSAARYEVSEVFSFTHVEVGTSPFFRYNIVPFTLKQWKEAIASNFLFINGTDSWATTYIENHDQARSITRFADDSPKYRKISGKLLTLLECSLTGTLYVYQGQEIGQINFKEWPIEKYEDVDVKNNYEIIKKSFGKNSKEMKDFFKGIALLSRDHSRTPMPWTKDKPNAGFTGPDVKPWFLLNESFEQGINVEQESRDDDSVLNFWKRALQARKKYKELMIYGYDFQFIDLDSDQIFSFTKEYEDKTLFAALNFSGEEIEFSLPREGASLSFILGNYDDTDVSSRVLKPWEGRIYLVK
Assay Info: biochemical
Assay Conditions: p-nitrophenyl α-D-glucopyranoside, pH 6.8, 37 °C; read-out: IC50 α-Glucosidase Inhibitory Activity
pIC50: −log10 of the molar value.

Compound: C=C1CC[C@@H]2[C@H]([C@H]3[C@H]1CC[C@]3(C)O)C2(C)C
Result: < 2.93

Compound: CC1(C)[C@H]2[C@H]3[C@H](CC[C@@]3(C)O)[C@@](C)(O)CC[C@H]21
Result: < 2.97

Compound: C=C1CC[C@@H](O)[C@]2(C)CC[C@@H](C(C)C)[C@H](O)[C@@H]12 [Compound 3, 1β,6α-dihydroxy-4(15)-eudesmene]
Result: < 2.97

Now examine the next entry.
I would be grateful if you could share the reported pIC50 for `CC1(C)[C@H]2[C@H]3[C@@H](CC[C@]3(C)O)[C@](C)(O)CC[C@H]21` .
< 2.97

Data credit: paper PMC10455239
